# assayRemarks: Cytotoxicity against C57BL/6 mouse peritoneal macrophages at 0.025 to 0.05 mg/ml after 48 hrs by MTT assay
# Assay type: cell-based, Peritoneal macrophage cell
# cond: read-out: MLC
readout: MCC at 48 h

query: Which MCC at 48 h reading was recorded for the molecule "CCCCC/C=C\C/C=C\CCCCCCCC(=O)NN1CCCC1" ?
result: 50 µg/mL

====

# Tested on: Toxocara canis
# assayRemarks: Larvicidal activity against Toxocara canis larvae infected in BALB/c mouse at 1 mg/ml after 12 hrs
# Type: functional
Calls of active or inactive are those of the source. No cut-off for these calls is given here.
readout: Activity

query: Which Activity reading was recorded for the compound "CCCCCC[C@@H](O)C/C=C\CCCCCCCC(=O)N[C@H](C)c1ccccc1" ?
result: Active

query: Which Activity reading was recorded for the compound "CCCCC/C=C\C/C=C\CCCCCCCC(=O)N[C@H](C)c1ccccc1" ?
result: Active

query: Which Activity reading was recorded for the compound "CCCCC/C=C\C/C=C\CCCCCCCC(=O)N[C@@H](C)c1ccccc1" ?
result: Active
